Each entry below carries its reported growth inhibition.
- Test Protocol: NCI Yeast Anticancer Drug Screen. Data for the mlh1 rad18 strain (AID 175)
- Stated Conditions: S. cerevisiae mlh1 rad18 strain growth inhibition; at 5.0 µM (retest, dose inferred, filed as 0.5); stronger effect = higher value
Compounds without any hit were thinned out: in the full panel of roughly 79,000, 15% have a hit.
Readout Name: growth inhibition (%)

* COc1ccc2c(c1O)-c1cccc3c1[C@@H](C2)N(CCCl)CC3 | 52
* O=C(Nc1ccccc1)OC(C[N+](=O)[O-])C(Cl)(Cl)Cl (centres undefined) | 11
* C[Si]1(C)CCCCC2(C1)C(=O)NC(=O)NC2=O | -17
* C=CC[N+]12CN3CN(CN(C3)C1)C2 | 38
* O=c1oc2ccccc2c(O)c1C(c1ccc(/C=C/c2ccccc2)cc1)c1c(O)c2ccccc2oc1=O | 7
* ClC(C[n+]1ccccc1)c1ccccc1 (centres undefined) | 10
* CCC(=O)OC1CCn2c1nc1c2C(=O)C(C)=C(N2CC2)C1=O (centres undefined) | 45
* CC(C)C1(NC(=O)C2C=C3c4cccc5[nH]cc(c45)CC3N(C)C2)OC2(O)C3CCCN3C(=O)C(Cc3ccccc3)N2C1=O (centres undefined) (tested in a mixture with another compound) | 6
* CC(Cl)CN(C)C (centres undefined) | 11
* CC[C@@]1(O)C[C@H](OC2CC(N(C)C)C(O)C(C)O2)c2c(O)c3c(c(O)c2[C@H]1OC1CC(N(C)C)C(O)C(C)O1)C(=O)c1cccc(O)c1C3=O (some centres undefined) | 13
* Cc1cccc(C)c1NC(=O)/C(CC(=O)CC(c1ccccc1)c1c(O)c2ccccc2oc1=O)=N/O (centres undefined) | 25
* CCOC(=O)C1C2c3ccccc3C(c3ccccc32)C1C(=O)OCC (centres undefined) | 16
* Nc1ccc(Cc2ccc(N)c(Cl)c2)cc1Cl | -3
* CC12CCC3C(CCC4CC(N5CCCCC5)=CCC43C)C1CCC2O (centres undefined) | -3
* C=C1C(C)C2C(Cc3ccccc3)NC(=O)C23C(OC(C)=O)C=CC(C)(O)C(=O)C(C)C/C=C/C3C1O (centres undefined) | 80
* Cc1ccc(C(=O)CCl)o1 | -96
* CC1CCC2(OC1)OC1CC3C4CC=C5CC(OC6OC(CO)C(OC7OC(C)C(OC8OC(C)C(O)C(O)C8O)C(O)C7O)C(O)C6OC6OC(C)C(O)C(O)C6O)CCC5(C)C4CCC3(C)C1C2C (centres undefined) | 98
* [Cl][Pt+2][Cl].[NH-]C1CCCC2CCC[N-]C12 (centres undefined) | 18
* COc1ccc(CC2C(=O)NC(C)C(=O)N(C)C3C(=O)N(C)C(Cc4ccc(O)c(c4)Oc4ccc(cc4)C3O)C(=O)NC(C)C(=O)NC(C)C(=O)N2C)cc1 (centres undefined) | 10

====

- Test Protocol: NCI Yeast Anticancer Drug Screen. Data for the rad50 strain (AID 155);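 further: 0% = growth of vehicle-only cultures of the same strain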
- Stated Conditions: S. cerevisiae rad50 strain growth inhibition; at 1.2 µM; stronger effect = higher value
- Experimental: Growth inhibition of yeast strains with defined genetic alterations is measured as a screen for potential anti-cancer activity. Selected strains with alterations in DNA damage repair or cell cycle control were exposed to compounds and growth inhibition was measured relative to vehicle treated controls. The strain used in this assay is rad50
Compounds without any hit were thinned out: in the full panel of roughly 79,000, 15% have a hit.
Readout Name: growth inhibition (%)

- COC(=O)C1c2cc3c(c(O)c2C(O)CC1(C)O)C(=O)c1c(O)cc2c(c1C3=O)OC1OC2(C)C(O)C(N(C)C)C1O (stereo unspecified): 1
- COc1cccc2c1C(=O)c1c(O)c3c(c(O)c1C2=O)C[C@@](O)(C(C)=O)C[C@@H]3OC1CC(N)C(OC2CC(O)C(O)C(C)O2)C(C)O1 (stereo partly specified): 1
- COC(=O)C1C2c3ccccc3C(c3ccccc32)C1C(=O)OC (stereo unspecified): 4
- O=C(NNC(=O)OCC(Cl)(Cl)Cl)OCC(Cl)(Cl)Cl: -1
- OC1CCCC2CCC[N-]C12.OC1CCCC2CCC[N-]C12.[O]=[V][OH] (stereo unspecified): 47
- CC1CC(Br)C(=O)O1 (stereo unspecified): -67
- CNC(=O)ON(C(C)=O)C(=O)NC: -17
- CCc1cccc(C(C)C)c1NC1=C([n+]2ccc(C)cc2)C(=O)c2ccccc2C1=O: -2
- CCN(CCCl)CCCCNc1c2ccccc2nc2ccc(OC)cc12: 38
- C/C(=N\N=C(N)N)C(CN1CCOCC1)C(c1ccccc1)c1c(O)c2ccccc2oc1=O (stereo unspecified): 3
- CC1CN1C1=C(Cl)C(=O)C(N2CC2C)=C(Cl)C1=O (stereo unspecified): 16
- COc1ccc(/C=C(/C)[N+](=O)[O-])cc1: -10
- C/C(=N\NC(N)=O)C(CN1CCOCC1)C(c1ccccc1)c1c(O)c2ccccc2oc1=O (stereo unspecified): -1
- O=P(CCCCP(=O)(c1ccccc1)c1ccccc1)(c1ccccc1)c1ccccc1.[Cl][Sn]([Cl])([c]1ccccc1)[c]1ccccc1: 26
- CC1=C2C(=C[C@@](C)(CO)[C@@H]2O)C(=O)[C@](C)(O)C12CC2: 2
- Cc1c(N)nc([C@H](CC(N)=O)NC[C@H](N)C(N)=O)nc1C(=O)N[C@H](C(=O)N[C@H](C)[C@@H](O)[C@H](C)C(=O)N[C@H](C(=O)NCCc1nc(-c2nc(C(=O)NCCC[S+](C)C)cs2)cs1)[C@@H](C)O)C(OC1OC(CO)C(O)C(O)C1OC1OC(CO)C(O)C(OC(N)=O)C1O)c1cnc[nH]1 (stereo partly specified): 8
- O=C(c1ccccc1)C1C(c2ccccc2[N+](=O)[O-])N1C1CCCCC1 (stereo unspecified): 2
- OCC(O)C(O)CO (stereo unspecified) (tested in a mixture with another compound): -8
- OC(c1ccc(Br)cc1)C(Cl)(Cl)Cl (stereo unspecified): 16
- CC1=C(N2CC2)C(=O)c2ccccc2C1=O: 1
- CC(=O)O/C(=C1\C[C@H]2[C@@H]3CC=C4C[C@@H](OC(C)=O)CC[C@]4(C)[C@H]3CC[C@]2(C)C1=O)C(F)(F)F: 3
- O=C1C=C(CN(CCCl)CCCl)C(=O)C=C1CN(CCCl)CCCl: -1
- CNCC(O)c1ccc(O)c(O)c1.[Pt].c1ccc([PH+](c2ccccc2)c2ccccc2)cc1.c1ccc([PH+](c2ccccc2)c2ccccc2)cc1: -1
- CCN(CCCl)c1cc(CN(C)C)cc(NC(=O)c2ccc(C(=O)Nc3cc(CN(C)C)cc(N(CC)CCCl)c3)cc2)c1: 3
- O=[N+]([O-])c1oc2ccc3ccccc3c2c1CCO: 83
- O=S(=O)(O)c1ccc(Cl)cc1.[Cd]: -2
- CC1=C(O)C(=O)C=C2C1=CC=C1[C@@]2(C)CCC2(C)[C@@H]3C[C@@H](C)C(=O)C[C@]3(C)CC[C@]12C (stereo partly specified): 11
- Oc1cccc2cccnc12: 18
- CN(N=O)C(=O)NNC(=O)N(C)N=O: 6
- CC[C@@]1(O)C[C@H](OC2CC(N(C)C)C(O)C(C)O2)c2c(O)c3c(c(O)c2[C@H]1OC1CC(N(C)C)C(O)C(C)O1)C(=O)c1cccc(O)c1C3=O (stereo partly specified): 15
- O=[N+]([O-])c1cc([As](Br)c2ccc(O)c([N+](=O)[O-])c2)ccc1O: 28
- O=[N+]([O-])O.[NH-]C1CCCCC1[NH-].[NH-]C1CCCCC1[NH-].[NH-]C1CCCCC1[NH-].[OH-].[OH-].[OH-].[Pt+4].[Pt+4].[Pt+4] (stereo unspecified): -6
- CNC(=O)OCC1C2=C(C(=O)C(C)=C(N)C2=O)N2CC3C(N3C)C12OC (stereo unspecified): -12
- CC1(C)N=C(N)N=C(N)N1c1cccc(N)c1.[Sn]: 5
- Nc1ccccc1C(=O)OCCc1ccccc1: -3
- CC1CCC2(NC1)OC1CC3C4CCC5CC(OC6OC(CO)C(OC7OC(CO)C(O)C(OC8OCC(O)C(O)C8O)C7OC7OC(CO)C(O)C(O)C7O)C(O)C6O)CCC5(C)C4CCC3(C)C1C2C (stereo unspecified): -2
